Recorded values, source patent US20250312499A1.

Listing: pKi of selected compounds
TARGET OF ASSAY: human kisspeptin receptor (Homo sapiens (Human))
ASSAY OVERVIEW: Human KISS1R binding assay (membrane competition binding)
CONDITION SUMMARY: 90 min at room temperature; competition with 0.2 nM [125I]-metastin (45-54); Flp-In T-Rex 293 kisspeptin membranes; metal complexes nonradioactive Ga, In, Lu; read-out: hKiSSR Binding Ki (90 min)
pKi: −log10 of the molar value. Square brackets hold non-standard residues; d marks the D form. Peptide text beside a SMILES is read from it. * marks the point of attachment. DOTA = O=C(O)CN1CCN(CC(=O)O)CCN(CC(=O)*)CCN(CC(=O)O)CC1; Ala(9-anthryl) = N[C@@H](Cc1c2ccccc2cc2ccccc12)C(=O)O; Gly(N-(3-F-4-Me-benzyl)) = Cc1ccc(CNCC(=O)*)cc1F; Gly(Nα-4-MeO-benzyl) = COc1ccc(CNCC(=O)*)cc1; Api(1-amidino) = N=C(N)N1CCC(N)(C(=O)O)CC1; Hydrocinnamoyl(4-I) = O=C(CCc1ccc(I)cc1)*; d2Nal = N[C@H](Cc1ccc2ccccc2c1)C(=O)O; 4Pal = N[C@@H](Cc1ccncc1)C(=O)O; d4Pal = N[C@H](Cc1ccncc1)C(=O)O; Nle = CCCC[C@H](N)C(=O)O; Api = NC1(C(=O)O)CCNCC1; PEG2 = NCCOCCOCCC(=O)O; Ahx = NCCCCCC(=O)O; azaGly = NNC(=O)O

Before answering, review these 4 worked examples.
COMPOUND	pKi
Cc1ccc(CNCC(=O)N2CCC(NC(=O)[C@H](CC(C)C)N[C@@H](CNC(=O)[C@H](Cc3ccccc3)NC(=O)CCCCCNC(=O)CN3CCN(CC(=O)O)CCN(CC(=O)O)CCN(CC(=O)O)CC3)C(F)(F)F)(C(=O)N[C@@H](Cc3c[nH]c4ccccc34)C(N)=O)CC2)cc1F	7.00 to 8.00
CCCC[C@H](NC(=O)NNC(=O)[C@H](Cc1ccccc1)NC(=O)[C@@H](NC(=O)[C@H](CC(N)=O)NC(=O)[C@H](Cc1c2ccccc2cc2ccccc12)NC(=O)[C@@H](Cc1ccc(O)cc1)NC(=O)CN1CCN(CC(=O)O)CCN(CC(=O)O)CCN(CC(=O)O)CC1)[C@@H](C)O)C(=O)NC1(C(=O)N[C@@H](Cc2ccncc2)C(N)=O)CCN(C(=N)N)CC1 [Compound 123] ({DOTA}-[dY][Ala(9-anthryl)]NTF[azaGly][Nle][Api(1-amidino)][4Pal]-NH2)	< 7.00
Cc1ccc(CNCC(=O)N2CCC(NC(=O)[C@H](CC(C)C)NC(=O)NNC(=O)[C@H](Cc3ccccc3)NC(=O)[C@@H](NC(=O)[C@H](CC(N)=O)NC(=O)[C@@H](Cc3ccc4ccccc4c3)NC(=O)[C@@H](Cc3ccc(O)cc3)NC(=O)CCCCCNC(=O)CN3CCN(CC(=O)O)CCN(CC(=O)O)CCN(CC(=O)O)CC3)[C@@H](C)O)(C(=O)N[C@@H](Cc3c[nH]c4ccccc34)C(N)=O)CC2)cc1F [Compound 304] ({DOTA-Ahx}-[dY][d2Nal]NTF[azaGly]L[Api](Gly(N-(3-F-4-Me-benzyl)))W-NH2)	> 8.00
CC(C)C[C@H](NC(=O)NNC(=O)[C@H](Cc1ccccc1)NC(=O)[C@@H](NC(=O)[C@H](CC(N)=O)NC(=O)[C@@H](Cc1ccc2ccccc2c1)NC(=O)[C@@H](Cc1ccc(O)cc1)NC(=O)CCOCCOCCNC(=O)CCc1ccc(I)cc1)[C@@H](C)O)C(=O)NC1(C(=O)N[C@@H](Cc2ccc(O)cc2)C(N)=O)CCN(C(=N)N)CC1 [Compound 397] ({Hydrocinnamoyl(4-I)-PEG2}-[dY][d2Nal]NTF[azaGly]L[Api(1-amidino)]Y-NH2)	> 8.00

Here's the next entry for you.
Documented pKi of COc1ccc(CNCC(=O)N2CCC(NC(=O)[C@H](CC(C)C)NC(=O)NNC(=O)[C@H](Cc3ccccc3)NC(=O)[C@@H](NC(=O)[C@H](CC(N)=O)NC(=O)[C@@H](Cc3ccncc3)NC(=O)[C@@H](Cc3ccc(O)cc3)NC(=O)CCCCCNC(=O)CN3CCN(CC(=O)O)CCN(CC(=O)O)CCN(CC(=O)O)CC3)[C@@H](C)O)(C(=O)N[C@@H](Cc3ccncc3)C(N)=O)CC2)cc1 [Compound 299] ({DOTA-Ahx}-[dY][d4Pal]NTF[azaGly]L[Api](Gly(Nα-4-MeO-benzyl))[4Pal]-NH2) : > 8.00

###

TARGET OF ASSAY: human kisspeptin receptor (Homo sapiens (Human), UniProt Q969F8)
Sequence (Q969F8 whole entry): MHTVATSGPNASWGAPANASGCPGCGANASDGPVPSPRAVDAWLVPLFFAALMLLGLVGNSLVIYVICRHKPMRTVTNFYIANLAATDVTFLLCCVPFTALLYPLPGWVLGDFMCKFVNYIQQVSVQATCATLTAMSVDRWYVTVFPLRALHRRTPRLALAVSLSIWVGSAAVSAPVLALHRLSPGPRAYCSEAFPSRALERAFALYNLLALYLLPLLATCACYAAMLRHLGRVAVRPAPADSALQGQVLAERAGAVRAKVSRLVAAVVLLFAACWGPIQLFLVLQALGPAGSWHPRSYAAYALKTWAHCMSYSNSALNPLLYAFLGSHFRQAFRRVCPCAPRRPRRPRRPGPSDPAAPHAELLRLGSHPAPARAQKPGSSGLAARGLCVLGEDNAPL
ASSAY OVERVIEW: Human KISS1R binding assay (membrane competition binding)
CONDITION SUMMARY: 90 min at room temperature; competition with 0.2 nM [125I]-metastin (45-54); Flp-In T-Rex 293 kisspeptin membranes; metal complexes nonradioactive Ga, In, Lu; read-out: hKiSSR Binding Ki (90 min)
pKi: −log10 of the molar value. Numbered stars: 1 amine (or outer) side, 2 acyl side, 3 side chain; on linkers, the order of the positions; unused ones are H or OH. Square brackets hold non-standard residues; d marks the D form. Peptide text beside a SMILES is read from it. * marks the point of attachment. DOTA = O=C(O)CN1CCN(CC(=O)O)CCN(CC(=O)*)CCN(CC(=O)O)CC1; Gly(N-(3-F-4-Me-benzyl)) = Cc1ccc(CNCC(=O)*)cc1F; X4 = O=C(c1ccc(-c2ccccc2OCCCN[*:1])cc1)[*:2]; Api(1-amidino) = N=C(N)N1CCC(N)(C(=O)O)CC1; 4Pal = N[C@@H](Cc1ccncc1)C(=O)O; Api = NC1(C(=O)O)CCNCC1; azaGly = NNC(=O)O
Items are presented alongside their recorded pKi.

MOLECULE	RESULT
CC(C)C[C@H](NC(=O)NNC(=O)[C@H](Cc1ccccc1)NC(=O)[C@@H](NC(=O)[C@H](CC(N)=O)NC(=O)[C@H](Cc1ccncc1)NC(=O)[C@@H](Cc1ccc(O)cc1)NC(=O)CN1CCN(CC(=O)O)CCN(CC(=O)O)CCN(CC(=O)O)CC1)[C@@H](C)O)C(=O)NC1(C(=O)N[C@@H](Cc2ccncc2)C(N)=O)CCN(C(=N)N)CC1 [Compound 273] ({DOTA}-[dY][4Pal]NTF[azaGly]L[Api(1-amidino)][4Pal]-NH2)	7.00 to 8.00

// field: pKi; key: Cc1ccc(CNCC(=O)N2CCC(NC(=O)[C@H](CC(C)C)NC(=O)NNC(=O)c3ccc(-c4ccccc4OCCCNC(=O)CN4CCN(CC(=O)O)CCN(CC(=O)O)CCN(CC(=O)O)CC4)cc3)(C(=O)N[C@@H](Cc3c[nH]c4ccccc34)C(N)=O)CC2)cc1F [Compound 298] ({DOTA}-[X4][azaGly]L[Api](Gly(N-(3-F-4-Me-benzyl)))W-NH2) ; value = > 8.00

###

TARGET OF ASSAY: UniProt Q969F8
ASSAY OVERVIEW: Human KISS1R binding assay (membrane competition binding)
CONDITION SUMMARY: 90 min at room temperature; competition with 0.2 nM [125I]-metastin (45-54); Flp-In T-Rex 293 kisspeptin membranes; metal complexes nonradioactive Ga, In, Lu; read-out: hKiSSR Binding Ki (90 min)
Square brackets hold non-standard residues; d marks the D form. Peptide text beside a SMILES is read from it. * marks the point of attachment. DOTA = O=C(O)CN1CCN(CC(=O)O)CCN(CC(=O)*)CCN(CC(=O)O)CC1; Gly(N-(3-F-4-Me-benzyl)) = Cc1ccc(CNCC(=O)*)cc1F; Butanoyl(4-(4-I-phenyl)) = O=C(CCCc1ccc(I)cc1)*; Api(1-amidino) = N=C(N)N1CCC(N)(C(=O)O)CC1; d2Nal = N[C@H](Cc1ccc2ccccc2c1)C(=O)O; Trx = NC[C@H]1CC[C@H](C(=O)O)CC1; Api = NC1(C(=O)O)CCNCC1; Ahx = NCCCCCC(=O)O; azaGly = NNC(=O)O
MEASURED ENDPOINT: Ki

MOLECULE	Ki
Cc1ccc(CNCC(=O)N2CCC(NC(=O)[C@H](CC(C)C)NC(=O)NNC(=O)[C@H](Cc3ccccc3)NC(=O)[C@H]3CC[C@H](CNC(=O)CCCCCNC(=O)CN4CCN(CC(=O)O)CCN(CC(=O)O)CCN(CC(=O)O)CC4)CC3)(C(=O)N[C@@H](Cc3c[nH]c4ccccc34)C(N)=O)CC2)cc1F [Compound 38] ({DOTA-Ahx-Trx}-F[azaGly]L[Api](Gly(N-(3-F-4-Me-benzyl)))W-NH2)	> 100 nM

Proceed to the following item.
Response field Ki (UniProt Q969F8) for item CC(C)C[C@H](NC(=O)NNC(=O)[C@H](Cc1ccccc1)NC(=O)[C@@H](NC(=O)[C@H](CC(N)=O)NC(=O)[C@@H](Cc1ccc2ccccc2c1)NC(=O)[C@@H](Cc1ccc(O)cc1)NC(=O)[C@@H](CCCCNC(=O)CCCc1ccc(I)cc1)NC(=O)CCCCCNC(=O)CN1CCN(CC(=O)O)CCN(CC(=O)O)CCN(CC(=O)O)CC1)[C@@H](C)O)C(=O)NC1(C(=O)N[C@@H](Cc2ccccc2)C(N)=O)CCN(C(=N)N)CC1 [Compound 310] ({DOTA-Ahx}-[dK](Butanoyl(4-(4-I-phenyl)))[dY][d2Nal]NTF[azaGly]L[Api(1-amidino)]F-NH2) : < 10 nM
